Entry source: paper PMC7774954

Consider the following compounds and their measured BI readings.
- system: MAGI2-4 (Homo sapiens, UniProt Q86UL8)
- Sequence (Q86UL8 whole entry): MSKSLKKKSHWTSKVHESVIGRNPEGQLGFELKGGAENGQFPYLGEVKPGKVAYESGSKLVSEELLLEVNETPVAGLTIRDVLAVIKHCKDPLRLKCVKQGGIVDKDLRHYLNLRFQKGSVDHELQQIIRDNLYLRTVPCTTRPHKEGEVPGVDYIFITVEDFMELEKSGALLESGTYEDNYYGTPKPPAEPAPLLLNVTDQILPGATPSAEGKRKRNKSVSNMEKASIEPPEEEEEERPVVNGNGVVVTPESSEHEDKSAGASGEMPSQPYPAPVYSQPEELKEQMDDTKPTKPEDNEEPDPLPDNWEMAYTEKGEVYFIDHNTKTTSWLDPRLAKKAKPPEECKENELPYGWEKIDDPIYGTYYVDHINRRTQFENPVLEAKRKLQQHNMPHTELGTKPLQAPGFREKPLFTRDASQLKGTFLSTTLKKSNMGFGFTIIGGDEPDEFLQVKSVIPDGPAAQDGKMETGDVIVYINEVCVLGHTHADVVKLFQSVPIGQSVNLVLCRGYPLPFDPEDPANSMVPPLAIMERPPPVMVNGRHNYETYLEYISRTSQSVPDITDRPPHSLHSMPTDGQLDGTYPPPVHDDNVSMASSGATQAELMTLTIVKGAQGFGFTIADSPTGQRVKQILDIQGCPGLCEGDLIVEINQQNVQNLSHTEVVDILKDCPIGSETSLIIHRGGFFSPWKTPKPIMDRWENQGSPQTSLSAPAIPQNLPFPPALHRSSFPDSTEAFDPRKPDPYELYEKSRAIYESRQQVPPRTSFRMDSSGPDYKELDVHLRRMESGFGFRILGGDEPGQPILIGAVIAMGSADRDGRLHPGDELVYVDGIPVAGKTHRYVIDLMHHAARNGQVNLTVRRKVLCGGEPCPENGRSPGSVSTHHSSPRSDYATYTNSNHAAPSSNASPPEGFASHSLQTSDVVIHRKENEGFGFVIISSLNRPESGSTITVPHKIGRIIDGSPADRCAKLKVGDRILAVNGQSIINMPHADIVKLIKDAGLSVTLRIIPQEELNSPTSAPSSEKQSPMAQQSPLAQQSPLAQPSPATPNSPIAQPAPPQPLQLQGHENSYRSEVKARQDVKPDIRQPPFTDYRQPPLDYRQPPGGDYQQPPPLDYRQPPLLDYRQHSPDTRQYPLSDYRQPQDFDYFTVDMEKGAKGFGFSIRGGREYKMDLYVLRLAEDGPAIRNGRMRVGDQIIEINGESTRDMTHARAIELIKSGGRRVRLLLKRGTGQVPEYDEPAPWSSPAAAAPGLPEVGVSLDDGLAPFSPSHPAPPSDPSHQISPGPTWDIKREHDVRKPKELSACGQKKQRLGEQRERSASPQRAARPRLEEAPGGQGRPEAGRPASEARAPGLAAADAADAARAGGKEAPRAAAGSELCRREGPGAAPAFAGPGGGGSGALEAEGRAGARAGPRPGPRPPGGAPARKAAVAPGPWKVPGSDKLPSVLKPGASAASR
- test-method-notes: Holdup assay, MAGI2-4
- Format: binding
*1 amine or outer side, *2 acyl side, *3 side chain or, on linkers, in order; H or OH if unused. Where a SMILES comes first, the peptide text is derived from it. The star is where a group is joined. X1 = O=C(CCCC[C@@H]1SC[C@@H]2NC(=O)N[C@@H]21)NCCCOCCOCCOCCCN*; Suc = O=C(CCC(=O)[*:2])[*:1]
Number only, no unit.

Example results:
compound	system	result-value
CC[C@H](C)[C@H](NC(=O)[C@H](CCC(N)=O)NC(=O)[C@@H](NC(=O)[C@H](Cc1c[nH]cn1)NC(=O)[C@H](CCC(N)=O)NC(=O)[C@H](CC(=O)O)NC(=O)[C@H](CCC(=O)O)NC(=O)[C@H](CC(=O)O)NC(=O)[C@H](Cc1ccccc1)NC(=O)[C@@H]1CCCN1C(=O)CCC(=O)NCCCOCCOCCOCCCNC(=O)CCCC[C@@H]1SC[C@@H]2NC(=O)N[C@@H]21)[C@@H](C)O)C(=O)N[C@H](C(=O)N[C@@H](CCCCN)C(=O)N[C@H](C(=O)O)C(C)C)[C@@H](C)O [PTEN_13] ({X1-Suc}-PFDEDQHTQITKV-OH)	MAGI2-4 (Homo sapiens, UniProt Q86UL8)	-0.036
CC[C@H](C)[C@H](NC(=O)[C@H](CCC(N)=O)NC(=O)[C@@H](NC(=O)[C@H](Cc1c[nH]cn1)NC(=O)[C@H](CCC(N)=O)NC(=O)[C@H](CC(=O)O)NC(=O)[C@H](CCC(=O)O)NC(=O)[C@H](CC(=O)O)NC(=O)CCC(=O)NCCCOCCOCCOCCCNC(=O)CCCC[C@@H]1SC[C@@H]2NC(=O)N[C@@H]21)[C@@H](C)O)C(=O)N[C@H](C(=O)N[C@@H](CCCNC(=N)N)C(=O)N[C@H](C(=O)O)C(C)C)[C@@H](C)O [PTEN_KR] ({X1-Suc}-DEDQHTQITRV-OH)	MAGI2-4 (Homo sapiens, UniProt Q86UL8)	0.116
CC[C@H](C)[C@H](NC(=O)[C@H](CCC(N)=O)NC(=O)[C@@H](NC(=O)[C@H](Cc1c[nH]cn1)NC(=O)[C@H](CCC(N)=O)NC(=O)[C@H](CC(=O)O)NC(=O)[C@H](CCC(=O)O)NC(=O)[C@H](CC(=O)O)NC(=O)CCC(=O)NCCCOCCOCCOCCCNC(=O)CCCC[C@@H]1SC[C@@H]2NC(=O)N[C@@H]21)[C@@H](C)O)C(=O)N[C@H](C(=O)N[C@@H](CCCCN)C(=O)N[C@H](C(=O)O)C(C)C)[C@@H](C)O [PTEN_11]	MAGI2-4 (Homo sapiens, UniProt Q86UL8)	0.06

-- ask Give the measured BI for CC[C@H](C)[C@H](NC(=O)[C@H](CCC(N)=O)NC(=O)[C@@H](NC(=O)[C@H](Cc1c[nH]cn1)NC(=O)[C@H](CCC(N)=O)NC(=O)[C@H](CC(=O)O)NC(=O)[C@H](CCC(=O)O)NC(=O)[C@H](CC(=O)O)NC(=O)CCC(=O)NCCCOCCOCCOCCCNC(=O)CCCC[C@@H]1SC[C@@H]2NC(=O)N[C@@H]21)[C@@H](C)O)C(=O)N[C@H](C(=O)N[C@@H](CCCCNC(C)=O)C(=O)N[C@H](C(=O)O)C(C)C)[C@@H](C)O [PTEN_Ac]
-- reply 0.1
